Each item that follows carries a reported IC50.
- study.system: L1196M mutant ALK kinase (Homo sapiens, UniProt Q9UM73, L1196M)
- Sequence (Q9UM73 19-1620 L1196M): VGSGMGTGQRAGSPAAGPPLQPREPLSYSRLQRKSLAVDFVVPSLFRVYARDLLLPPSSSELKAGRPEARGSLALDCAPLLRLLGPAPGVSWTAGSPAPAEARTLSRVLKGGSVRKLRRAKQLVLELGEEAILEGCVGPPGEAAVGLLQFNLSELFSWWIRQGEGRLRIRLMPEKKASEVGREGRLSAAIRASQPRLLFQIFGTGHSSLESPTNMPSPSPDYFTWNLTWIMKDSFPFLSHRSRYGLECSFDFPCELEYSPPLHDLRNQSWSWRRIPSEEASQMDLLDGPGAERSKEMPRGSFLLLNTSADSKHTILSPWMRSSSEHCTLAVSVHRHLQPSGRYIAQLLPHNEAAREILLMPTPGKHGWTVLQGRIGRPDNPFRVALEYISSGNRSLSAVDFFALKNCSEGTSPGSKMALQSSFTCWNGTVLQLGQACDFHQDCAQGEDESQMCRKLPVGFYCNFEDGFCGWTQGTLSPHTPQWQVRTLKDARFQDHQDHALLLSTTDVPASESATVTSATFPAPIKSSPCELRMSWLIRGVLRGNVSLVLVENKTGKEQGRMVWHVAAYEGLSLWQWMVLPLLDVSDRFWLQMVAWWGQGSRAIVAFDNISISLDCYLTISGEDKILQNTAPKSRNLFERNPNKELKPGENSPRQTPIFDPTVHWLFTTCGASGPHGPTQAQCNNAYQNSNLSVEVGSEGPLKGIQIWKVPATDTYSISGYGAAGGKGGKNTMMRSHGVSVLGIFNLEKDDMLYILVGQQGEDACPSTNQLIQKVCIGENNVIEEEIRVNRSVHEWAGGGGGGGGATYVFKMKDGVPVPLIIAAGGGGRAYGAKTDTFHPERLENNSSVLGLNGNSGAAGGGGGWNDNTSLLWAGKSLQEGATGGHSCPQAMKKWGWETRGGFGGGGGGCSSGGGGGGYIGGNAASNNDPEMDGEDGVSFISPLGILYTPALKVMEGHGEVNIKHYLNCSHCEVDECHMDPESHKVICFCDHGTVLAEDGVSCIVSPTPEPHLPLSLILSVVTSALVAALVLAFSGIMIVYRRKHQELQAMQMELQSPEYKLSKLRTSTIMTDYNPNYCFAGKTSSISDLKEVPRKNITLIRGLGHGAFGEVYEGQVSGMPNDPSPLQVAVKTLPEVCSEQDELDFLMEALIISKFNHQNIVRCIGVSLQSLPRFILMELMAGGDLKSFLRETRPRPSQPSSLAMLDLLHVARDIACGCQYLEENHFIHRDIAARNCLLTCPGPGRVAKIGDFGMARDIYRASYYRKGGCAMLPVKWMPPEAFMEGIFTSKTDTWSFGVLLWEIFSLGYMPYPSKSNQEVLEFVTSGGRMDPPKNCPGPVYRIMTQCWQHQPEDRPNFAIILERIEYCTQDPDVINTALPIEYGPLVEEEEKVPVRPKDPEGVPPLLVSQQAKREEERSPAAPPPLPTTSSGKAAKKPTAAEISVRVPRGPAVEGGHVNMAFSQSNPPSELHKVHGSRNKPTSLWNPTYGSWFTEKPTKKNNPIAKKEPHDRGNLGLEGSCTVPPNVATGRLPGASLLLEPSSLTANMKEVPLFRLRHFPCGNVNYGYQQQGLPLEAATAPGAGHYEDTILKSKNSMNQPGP
- protocol.description: HTRF KinEASE-TK assay, inhibitory activity on L1196M mutant ALK kinase
- experimental.parameters: L1196M mutant ALK 1 ng/μl, substrate 1 μM, ATP 5 μM, 30° C. 35 minutes, read-out: Inhibition on ALK kinases (L1196M mutant), IC50
Field format: number, assumed nM, no unit text.

                                   compound                              study_system  experimental_endpoint  units  endpoint_result
0  Cc1cc(Nc2ncc(Cl)c(Nc3cn(C)nc3S(=O)(=O)C(C)C)n2)c(OC2CC2)cc1C1CCN(C)CC1 [Final product 51]  L1196M mutant ALK kinase (Homo sapiens, UniProt Q9UM73, L1196M)                   IC50     nM                4

Attention now turns to another entry.
Fill in: IC50 of Cc1cc(Nc2ncc(Cl)c(Nc3cn(C)nc3S(=O)(=O)C(C)C)n2)c(OC2CCC2)cc1C1CCN(CCO)CC1 [Final product 138] is ___
8

* * *

- study.system: L1196M mutant ALK kinase (Homo sapiens, UniProt Q9UM73, L1196M)
- protocol.description: HTRF KinEASE-TK assay, inhibitory activity on L1196M mutant ALK kinase
- experimental.parameters: L1196M mutant ALK 1 ng/μl, substrate 1 μM, ATP 5 μM, 30° C. 35 minutes, read-out: Inhibition on ALK kinases (L1196M mutant), IC50
experimental.endpoint: IC50 (nM)
Response body: numeric value in nM, unit text excluded.

>>> df
                                   compound  endpoint_result
0  CC(C)S(=O)(=O)c1nn(C2CC2)cc1Nc1nc(Nc2ccc(C3CCNCC3)cc2OC2CC2)ncc1Cl                7
1  Cc1cc(Nc2ncc(Cl)c(Nc3cn(C)nc3S(=O)(=O)C(C)C)n2)c(OC2CC2)cc1C1CCN(C(=O)C2CC2)CC1               21
2  Cc1cc(Nc2nc(Nc3cc(C)c(C4CCCNC4)cc3C)ncc2Cl)n[nH]1 (stereo not shown) [Final product 214, reference compound]               54

// returns reported IC50 for input "CC(C)S(=O)(=O)c1nn(C2CC2)cc1Nc1nc(Nc2cc(Cl)c(C3CCN(C)CC3)cc2OC2CC2)ncc1Cl"
5

* * *

- study.system: L1196M mutant ALK kinase (Homo sapiens, UniProt Q9UM73, L1196M)
- protocol.description: HTRF KinEASE-TK assay, inhibitory activity on L1196M mutant ALK kinase
- experimental.parameters: L1196M mutant ALK 1 ng/μl, substrate 1 μM, ATP 5 μM, 30° C. 35 minutes, read-out: Inhibition on ALK kinases (L1196M mutant), IC50
experimental.endpoint: IC50
Write the numeric value and append its unit.

# count of solved cases: 3
                                   compound                              study_system  endpoint_result
0  Cc1cc(Nc2ncc(Cl)c(Nc3cn(C)nc3S(=O)(=O)CC(C)C)n2)c(OC(C)C)cc1C1CN(C)C1 [Final product 36]  L1196M mutant ALK kinase (Homo sapiens, UniProt Q9UM73, L1196M)            15 nM
1  CC(C)S(=O)(=O)c1nn(C)cc1Nc1nc(Nc2cc(Cl)c(C3CCN(C)CC3)cc2OC2CC2)ncc1Cl [Final product 47]  L1196M mutant ALK kinase (Homo sapiens, UniProt Q9UM73, L1196M)            10 nM
2  CC(=O)N1CCC(c2cc(OC3CC3)c(Nc3ncc(Cl)c(Nc4cn(C)nc4S(=O)(=O)C(C)C)n3)cc2C)CC1 [Final product 160]  L1196M mutant ALK kinase (Homo sapiens, UniProt Q9UM73, L1196M)             9 nM

Attention now turns to another entry.
Field request: IC50 | item: Cc1cc(Nc2ncc(Cl)c(Nc3cn(C)nc3S(=O)(=O)C(C)C)n2)c(OC2CC2)cc1C1CCN(C)CC1C (stereo not shown) [Final product 90]
4 nM

* * *

pIC50: −log10 of the molar value.
Target or system cytochrome P450 1A2 (Homo sapiens); recorded quantity pIC50.

                                   compound  endpoint_result
0  Cc1cc(Nc2ncc(Cl)c(Nc3cn(C)nc3S(=O)(=O)C(C)C)n2)c(OC(C)C)cc1C1CC(C)N(C)C(C)C1 (stereo not drawn)           < 5.00
1  Cc1cc(Nc2ncc(Cl)c(Nc3cn(C)nc3S(=O)(=O)C(C)C)n2)c(OC2CC2)cc1C1CCN(C(=O)CC#N)CC1           < 5.00
2  Cc1cc(Nc2ncc(Cl)c(Nc3cn(C)nc3S(=O)(=O)C(C)C)n2)c(OC2CC2)cc1C1CCN(C(=O)C(F)(F)F)CC1           < 5.00
3  CC(C)S(=O)(=O)c1nn(C)cc1Nc1nc(Nc2cc(F)c(C3CCN(C)CC3)cc2OC2CC2)ncc1Cl           < 5.00
4  CC(C)S(=O)(=O)c1nn(C)cc1Nc1nc(Nc2ccc(C3CCN(C)CC3)cc2OC2CC2)ncc1Cl           < 5.00

Shift focus to the following entry.
// fetch cytochrome P450 1A2 (Homo sapiens) pIC50 for "CC(C)S(=O)(=O)c1nn(C)cc1Nc1nc(Nc2cc(Cl)c(C3CCN(C)CC3)cc2OC2CC2)ncc1Cl"
< 5.00

* * *

- study.system: L1196M mutant ALK kinase (Homo sapiens, UniProt Q9UM73, L1196M)
- protocol.description: HTRF KinEASE-TK assay, inhibitory activity on L1196M mutant ALK kinase
- experimental.parameters: L1196M mutant ALK 1 ng/μl, substrate 1 μM, ATP 5 μM, 30° C. 35 minutes, read-out: Inhibition on ALK kinases (L1196M mutant), IC50
Examples of compounds with documented pIC50 follow.
Friendly reminder that pIC50 comes from taking -log10 of the concentration in mol/L.

>>> print(df.to_string())
                                   compound                              study_system  endpoint_result
0  Cc1cc(Nc2ncc(Cl)c(Nc3cn(C)nc3S(=O)(=O)C(C)C)n2)c(OC2CC2)cc1C1CCN(C)CC1(F)F (stereo not drawn) [Final product 88]  L1196M mutant ALK kinase (Homo sapiens, UniProt Q9UM73, L1196M)             7.82
1  CC(=O)N1CCN([C@H]2CC[C@H](c3cc(OC4CC4)c(Nc4ncc(Cl)c(Nc5cn(C)nc5S(=O)(=O)C(C)C)n4)cc3C)CC2)CC1 [Final product 204]  L1196M mutant ALK kinase (Homo sapiens, UniProt Q9UM73, L1196M)             7.74
2  CC(C)S(=O)(=O)c1nn(C)cc1Nc1nc(Nc2cc(C#N)c(C3CCNCC3)cc2OC2CC2)ncc1Cl [Final product 29]  L1196M mutant ALK kinase (Homo sapiens, UniProt Q9UM73, L1196M)             8.15
3  Cc1cc(Nc2ncc(Cl)c(Nc3cn(C)nc3S(=O)(=O)C(C)C)n2)c(OC2CC2)cc1C1CCN(C=O)CC1 [Final product 159]  L1196M mutant ALK kinase (Homo sapiens, UniProt Q9UM73, L1196M)             8.05
4  CCOc1cc(C2CCN(CCO)CC2)c(C)cc1Nc1ncc(Cl)c(Nc2cn(C)nc2S(=O)(=O)C(C)C)n1 [Final product 135]  L1196M mutant ALK kinase (Homo sapiens, UniProt Q9UM73, L1196M)             8.15

Any idea what its pIC50 is? The compound is Cc1nc(S(=O)(=O)C(C)C)c(Nc2nc(Nc3cc(C)c(C4CCN(C)CC4)cc3OC3CC3)ncc2Cl)s1 [Final product 113]
7.66

* * *

- study.system: L1196M mutant ALK kinase (Homo sapiens, UniProt Q9UM73, L1196M)
- protocol.description: HTRF KinEASE-TK assay, inhibitory activity on L1196M mutant ALK kinase
- experimental.parameters: L1196M mutant ALK 1 ng/μl, substrate 1 μM, ATP 5 μM, 30° C. 35 minutes, read-out: Inhibition on ALK kinases (L1196M mutant), IC50
experimental.endpoint: IC50 (nM)
A number alone suffices; assume nM.

In [3]: df
Out[3]:
                                   molecule  experimental_endpoint  units  endpoint_result
0  CC(C)S(=O)(=O)c1nn(C)cc1Nc1nc(Nc2cc(Cl)c(C3CCNCC3)cc2OC2CC2)ncc1Cl [Final product 22]                   IC50     nM               12
1  Cc1cc(Nc2ncc(Cl)c(Nc3cn(C)nc3S(=O)(=O)C(C)C)n2)c(OC2CC2)cc1C1CCN(C(C)C)CC1 [Final product 123]                   IC50     nM                5
2  Cc1cc(Nc2ncc(Cl)c(Nc3cn(C)nc3S(=O)(=O)CC(C)C)n2)c(OC2CC2)cc1[C@H]1CC[C@H](NC2CC2)CC1 [Final product 180]                   IC50     nM               40
3  CC(C)S(=O)(=O)c1nn(C)cc1Nc1nc(Nc2ccc(C3CCNCC3)cc2OC2CC2)ncc1Cl [Final product 13]                   IC50     nM                7
4  Cc1cc(Nc2ncc(Cl)c(Nc3cn(C)nc3S(=O)(=O)C(C)C)n2)c(OC2CC2)cc1C1CC(C)N(C)C(C)C1 (stereo not drawn) [Final product 95]                   IC50     nM                3

We next turn to a different molecule, shown below.
Using the record for CC(C)S(=O)(=O)c1nn(C)cc1Nc1nc(Nc2ccc(C3CCNCC3)cc2OC(F)(F)F)ncc1Cl [Final product 9] , report its IC50.
35
